# TARGET ENTITY: BMPR2 GBD-Fc (WT) (human) (UniProt Q13873)
# Sequence (Q13873 whole entry): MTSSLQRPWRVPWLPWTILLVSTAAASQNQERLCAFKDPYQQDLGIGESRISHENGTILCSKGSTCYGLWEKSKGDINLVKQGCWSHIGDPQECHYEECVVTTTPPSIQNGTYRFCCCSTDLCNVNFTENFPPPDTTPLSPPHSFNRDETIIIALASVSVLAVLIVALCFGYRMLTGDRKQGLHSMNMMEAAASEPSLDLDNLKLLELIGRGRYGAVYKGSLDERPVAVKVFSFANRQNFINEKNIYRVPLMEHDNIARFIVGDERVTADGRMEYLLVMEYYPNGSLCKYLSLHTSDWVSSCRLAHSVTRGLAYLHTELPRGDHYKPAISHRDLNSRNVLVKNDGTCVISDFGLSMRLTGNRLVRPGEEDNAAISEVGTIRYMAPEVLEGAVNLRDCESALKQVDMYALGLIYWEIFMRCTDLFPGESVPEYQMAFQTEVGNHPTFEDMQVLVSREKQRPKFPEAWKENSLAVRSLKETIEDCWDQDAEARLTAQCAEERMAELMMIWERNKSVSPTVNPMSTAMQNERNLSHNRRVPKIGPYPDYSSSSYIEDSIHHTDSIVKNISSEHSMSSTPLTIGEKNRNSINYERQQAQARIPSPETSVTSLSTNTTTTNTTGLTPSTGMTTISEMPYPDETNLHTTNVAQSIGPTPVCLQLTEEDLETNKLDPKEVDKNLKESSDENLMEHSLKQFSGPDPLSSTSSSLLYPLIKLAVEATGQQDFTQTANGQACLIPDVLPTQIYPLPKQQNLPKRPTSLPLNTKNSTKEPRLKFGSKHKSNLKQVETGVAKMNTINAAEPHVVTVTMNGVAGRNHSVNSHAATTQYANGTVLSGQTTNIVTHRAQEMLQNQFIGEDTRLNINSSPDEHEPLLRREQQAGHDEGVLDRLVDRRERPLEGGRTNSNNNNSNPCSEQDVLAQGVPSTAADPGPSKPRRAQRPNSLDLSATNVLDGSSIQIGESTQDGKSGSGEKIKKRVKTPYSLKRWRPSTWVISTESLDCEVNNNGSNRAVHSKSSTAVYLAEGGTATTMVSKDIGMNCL
# EXPERIMENTAL PROTOCOL: SPR; BIAcore 3000; receptor-Fc (about 500 RU BMPR2-Fc WT or variants, 150 RU ACVR2A-Fc) captured on immobilised anti-human IgG (Fc), CM5 chip; single injections of 80 nM GF, single curve fits, averages of two independent injections; 25 °C; HBS/EPS (0.01 M Hepes, 0.5 M NaCl, 3 mM EDTA, 0.005% Tween 20, pH 7.4) with 0.1% bovine serum albumin; 50 μl/min; 1:1 binding model, KD = kd/ka
Exercise: for every item that follows, state its recorded kon.
Numbers only, in M⁻¹ s⁻¹.

Guide cases for kon, answers given:
* BMP10 (ligand) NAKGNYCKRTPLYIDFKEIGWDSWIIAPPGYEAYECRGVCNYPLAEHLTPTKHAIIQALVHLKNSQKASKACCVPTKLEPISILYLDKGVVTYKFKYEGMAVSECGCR | 91000
* activin B (ligand) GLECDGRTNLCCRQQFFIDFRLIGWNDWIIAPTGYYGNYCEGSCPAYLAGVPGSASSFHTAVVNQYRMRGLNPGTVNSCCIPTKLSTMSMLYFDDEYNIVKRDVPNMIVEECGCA | 790000
* Nodal (ligand) HHLPDRSQLCRKVKFQVDFNLIGWGSWIIYPKQYNAYRCEGECPNPVGEEFHPTNHAYIQSLLKRYQPHRVPSTCCAPVKTKPLSMLYVDNGRVLLDHHKDMIVEECGCL | 42000

Kindly review the next binder as well.
Exercise: Name the reported kon value associated with the binder BMP15 (ligand) QADGISAEVTASSSKHSGPENNQCSLHPFQISFRQLGWDHWIIAPPFYTPNYCKGTCLRVLRDGLNSPNHAIIQNLINQLVDQSVPRPSCVPYKYVPISVLMIEANGSILYKEYEGMIAESCTCR
Key: 330000
